System: NCI-H1417;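 also: human NCI-H1417 cells, growth inhibition determined with a cell viability readout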
Assay: cells
Assay type: functional, cell-based, Homo sapiens
Conditions: Homo sapiens, NCI-H1417
Description: SANGER: Inhibition of human NCI-H1417 cell growth in a cell viability assay.
pIC50: −log10 of the molar value.
Catalogue of compounds with associated pIC50

These solved cases illustrate the format of a correct answer.
NC(=O)c1cccc(-c2cc(Nc3ccc(OC(F)(F)F)cc3)ncn2)c1: < 5.89
Cc1ccc(NC(=O)c2ccc(CN3CCN(C)CC3)cc2)cc1Nc1nccc(-c2cccnc2)n1: < 5.70

[ask] Determine from records and report pIC50 for "C/C(=C\c1csc(C)n1)[C@@H]1C[C@@H]2O[C@]2(C)CCC[C@H](C)[C@H](O)[C@@H](C)C(=O)C(C)(C)[C@@H](O)CC(=O)O1"
[reply] 7.68

[ask] Hello, please tell me recorded pIC50 for this one: "OC[C@H](Cc1ccccc1)Nc1nc(Oc2ccc3c(c2)CCC3)nc2c1ncn2Cc1ccc(-c2ccccc2)cc1"
[reply] < 4.99

[ask] Provide measured pIC50 value, entry: "CCCCCCCCCCCC1=C(O)C(=O)C=C(O)C1=O"
[reply] < 4.49

* * *

Test system: ECC4;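 also: growth inhibition of ECC4 cells, read out with a cell viability assay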
Assay: cells
Type: functional, cell-based, Homo sapiens
Conditions: Homo sapiens, ECC4
Description: SANGER: Inhibition of human ECC4 cell growth in a cell viability assay.
READOUT_KIND: IC50

These recorded examples may help you get a feel for the data.
Cc1cc(N2CCOCC2)cc2[nH]c(-c3c(NC[C@@H](O)c4cccc(Cl)c4)cc[nH]c3=O)nc12: > 5.12 µM
CCCCCCCCCCCC1=C(O)C(=O)C=C(O)C1=O [EMBELIN]: 23.8 µM
C=CC(=O)N1CCCC(Nc2nc(Nc3ccc(N(C)C(=O)CC)cc3)nc3[nH]cnc23)C1 (stereo unspecified): > 10.2 µM
COc1cc(N2CCC(N3CCN(C)CC3)CC2)ccc1Nc1ncc(Cl)c(Nc2ccccc2S(=O)(=O)C(C)C)n1 [TAE-684]: > 2 µM
Cc1ccc(NC(=O)c2ccc(CN3CCN(C)CC3)cc2)cc1Nc1nccc(-c2cccnc2)n1 [IMATINIB]: > 2 µM

[ask] Name the recorded IC50 of the item Cc1ccc(C(=O)Nc2ccc(CN3CCN(C)CC3)c(C(F)(F)F)c2)cc1C#Cc1cnc2cccnn12 [PONATINIB] in your answer.
[reply] > 0.512 µM

* * *

Let's look at some molecules and their measured IC50.
Tested on: ABC-1;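 also: growth inhibition of human ABC-1 cells, read out by a cell viability assay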
Test: cells
Format: functional, cell-based
Details: Homo sapiens
Description: SANGER: Inhibition of human ABC-1 cell growth in a cell viability assay.
Hi! Could you send only the number? It should be in µM, unit omitted.

NC1(c2ccc(-c3nc4ccn5c(=O)[nH]nc5c4cc3-c3ccccc3)cc2)CCC1: 2.33

Now for the molecule whose IC50 we want.
[ask] In one line, give reported IC50 of the entry "C/C(=C\c1csc(C)n1)[C@@H]1C[C@@H]2O[C@]2(C)CCC[C@H](C)[C@H](O)[C@@H](C)C(=O)C(C)(C)[C@@H](O)CC(=O)O1" .
[reply] 0.00168

* * *

IC50 by entry:
Test system: KP-N-YS;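 also: cell viability assay measuring inhibition of cell line growth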
Assay: cells
Format: functional, cell-based, Homo sapiens
Settings: Homo sapiens, KP-N-YS
Description: SANGER: Inhibition of human KP-N-YS cell growth in a cell viability assay.

Cc1ccc(C(=O)Nc2ccc(CN3CCN(C)CC3)c(C(F)(F)F)c2)cc1C#Cc1cnc2cccnn12: > 0.512 µM
CC(C)C[C@H](NC(=O)[C@H](Cc1ccccc1)NC(=O)c1cnccn1)B(O)O: > 0.02 µM
C[C@@H](Oc1cc(-c2cnn(C3CCNCC3)c2)cnc1N)c1c(Cl)ccc(F)c1Cl: > 2 µM
CC1=C(/C=C/C(C)=C/C=C/C(C)=C/C(=O)O)C(C)(C)CCC1: > 10 µM
Cc1ccc(-n2nc(C(C)(C)C)cc2NC(=O)Nc2ccc(OCCN3CCOCC3)c3ccccc23)cc1: > 10 µM

[ask] State, in one line, measured IC50 of "NC1(c2ccc(-c3nc4ccn5c(=O)[nH]nc5c4cc3-c3ccccc3)cc2)CCC1"
[reply] > 4 µM

[ask] In one line, give reported IC50 of the entry "CCCCCCCCCCCC1=C(O)C(=O)C=C(O)C1=O" .
[reply] > 32 µM

* * *

Test system: HCC1937;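 also: growth inhibition measured with a cell viability read-out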
Assay: cells
Assay type: functional, cell-based
Conditions: Homo sapiens
Description: SANGER: Inhibition of human HCC1937 cell growth in a cell viability assay.
pIC50: −log10 of the molar value.
pIC50 by entry:

O=C1NC(=O)c2c1c(-c1ccccc1Cl)cc1[nH]c3ccc(O)cc3c21: < 5.70

[ask] Look up pIC50 of NC(=O)Nc1cc(-c2cccc(F)c2)sc1C(=O)N[C@H]1CCCNC1 [AZD-7762] and report it.
[reply] 6.15

[ask] Look up and state reported pIC50 for Cc1ccc(-n2nc(C(C)(C)C)cc2NC(=O)Nc2ccc(OCCN3CCOCC3)c3ccccc23)cc1 [DORAMAPIMOD]
[reply] < 5.00

[ask] Please supply the value of reported pIC50 for the item CN(NC(=O)CC(=O)NN(C)C(=S)c1ccccc1)C(=S)c1ccccc1 [ELESCLOMOL]
[reply] 7.45

[ask] Return reported pIC50. Input compound: CC1=C(/C=C/C(C)=C/C=C/C(C)=C/C(=O)O)C(C)(C)CCC1 [TRETINOIN]
[reply] < 5.00

[ask] Given CC1(C)CCC(c2ccc(Cl)cc2)=C(CN2CCN(c3ccc(C(=O)NS(=O)(=O)c4ccc(N[C@H](CCN5CCOCC5)CSc5ccccc5)c(S(=O)(=O)C(F)(F)F)c4)cc3)CC2)C1 [NAVITOCLAX] , respond with its pIC50.
[reply] < 5.70

[ask] Tell me its pIC50 given Cc1ccc(C(=O)Nc2ccc(CN3CCN(C)CC3)c(C(F)(F)F)c2)cc1C#Cc1cnc2cccnn12 [PONATINIB] as the entry.
[reply] < 6.29

* * *

Test system: HT-1080
Assay: cells
Type: functional, cell-based
Conditions: Homo sapiens
Description: SANGER: Inhibition of human HT-1080 cell growth in a cell viability assay.
READOUT_KIND: IC50

CC1(C)CCC(c2ccc(Cl)cc2)=C(CN2CCN(c3ccc(C(=O)NS(=O)(=O)c4ccc(N[C@H](CCN5CCOCC5)CSc5ccccc5)c(S(=O)(=O)C(F)(F)F)c4)cc3)CC2)C1 [NAVITOCLAX]: > 2 µM
NC1(c2ccc(-c3nc4ccn5c(=O)[nH]nc5c4cc3-c3ccccc3)cc2)CCC1 [MK-2206]: > 4 µM
Cc1ccc(C(=O)Nc2ccc(CN3CCN(C)CC3)c(C(F)(F)F)c2)cc1C#Cc1cnc2cccnn12 [PONATINIB]: > 0.512 µM
CS(=O)(=O)N1CCN(Cc2cc3nc(-c4cccc5[nH]ncc45)nc(N4CCOCC4)c3s2)CC1 [PICTILISIB]: 3.09 µM

Now consider the entry below.
[ask] Kindly indicate its recorded IC50. Item: CN(C)CCOc1ccc(-c2nc(-c3ccncc3)c(-c3ccc4c(c3)CC/C4=N\O)[nH]2)cc1 [SB590885]
[reply] > 5 µM

* * *

Entries and their measured pIC50 follow.
System: PFSK-1
Experiment: cells
Assay type: functional, cell-based
Details: Homo sapiens
Description: SANGER: Inhibition of human PFSK-1 cell growth in a cell viability assay.
pIC50: −log10 of the molar value.

Use the examples below as a reference point.
O=S(=O)(O)c1ccc2cc(/N=N/c3cc(S(=O)(=O)O)c4cccnc4c3O)ccc2c1: < 4.80
Cc1ccc(-n2nc(C(C)(C)C)cc2NC(=O)Nc2ccc(OCCN3CCOCC3)c3ccccc23)cc1: < 5.00
Cc1ccc(C(=O)Nc2ccc(CN3CCN(C)CC3)c(C(F)(F)F)c2)cc1C#Cc1cnc2cccnn12: < 6.29

[ask] For PFSK-1, give the measured pIC50 of the entry "COC(=O)[C@H](CCSC)NC(=O)c1ccc(NC[C@@H](N)CS)cc1-c1ccccc1"
[reply] < 5.99

[ask] Determine reported pIC50 for "COc1ccc(-c2cc3nccn3c(Nc3ncccc3C(N)=O)n2)cc1OC" ; test system: PFSK-1.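 Also: cell viability assay measuring how strongly compounds suppress growth of human PFSK-1 cells.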
[reply] 5.14

[ask] Give PFSK-1 pIC50 for the following compound: "NC(=O)c1ccc(N(C(N)=O)c2c(F)cccc2F)nc1-c1ccc(F)cc1F"
[reply] < 5.70

* * *

Test system: 8305C
Test: cells
Assay type: functional, cell-based
Settings: Homo sapiens
Description: SANGER: Inhibition of human 8305C cell growth in a cell viability assay.
READOUT_KIND: pIC50
Value format note: pIC50 is -log10 of concentration (mol/L); just state the number.

Known pIC50 results, listed for orientation:
CCCCCCCCCCCC1=C(O)C(=O)C=C(O)C1=O [EMBELIN]: 4.59
CN(NC(=O)CC(=O)NN(C)C(=S)c1ccccc1)C(=S)c1ccccc1 [ELESCLOMOL]: 6.72

Please turn your attention to the following entry.
[ask] Note pIC50 for the compound shown: NC(=O)Nc1cc(-c2cccc(F)c2)sc1C(=O)N[C@H]1CCCNC1 [AZD-7762]
[reply] 6.10

* * *

Item-by-item account of pIC50
Test system: EW-3;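 also: cell viability assay read-out, IC50 reflects inhibition of growth of the EW-3 cells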
Experiment: cells
Type: functional, cell-based, Homo sapiens
Details: Homo sapiens, EW-3
Description: SANGER: Inhibition of human EW-3 cell growth in a cell viability assay.
Reminder that pIC50 means the negative base-10 logarithm of the concentration expressed in mol/L.

CN(NC(=O)CC(=O)NN(C)C(=S)c1ccccc1)C(=S)c1ccccc1: 7.40
O=C1NC(=O)c2c1c(-c1ccccc1Cl)cc1[nH]c3ccc(O)cc3c21: 6.02
CC1(C)CCC(c2ccc(Cl)cc2)=C(CN2CCN(c3ccc(C(=O)NS(=O)(=O)c4ccc(N[C@H](CCN5CCOCC5)CSc5ccccc5)c(S(=O)(=O)C(F)(F)F)c4)cc3)CC2)C1: 7.09
COc1ccc(-c2cc3nccn3c(Nc3ncccc3C(N)=O)n2)cc1OC: 5.31
Cc1cc(N2CCOCC2)cc2[nH]c(-c3c(NC[C@@H](O)c4cccc(Cl)c4)cc[nH]c3=O)nc12: 5.32

[ask] Quote pIC50 reported for "NC(=O)Nc1cc(-c2cccc(F)c2)sc1C(=O)N[C@H]1CCCNC1" please.
[reply] 6.13
